Here, each record is paired with measured inhibition data.
# targetOfAssay: Trypanothione reductase (Trypanosoma cruzi) (UniProt P28593)
# Sequence (P28593 whole entry, looked up): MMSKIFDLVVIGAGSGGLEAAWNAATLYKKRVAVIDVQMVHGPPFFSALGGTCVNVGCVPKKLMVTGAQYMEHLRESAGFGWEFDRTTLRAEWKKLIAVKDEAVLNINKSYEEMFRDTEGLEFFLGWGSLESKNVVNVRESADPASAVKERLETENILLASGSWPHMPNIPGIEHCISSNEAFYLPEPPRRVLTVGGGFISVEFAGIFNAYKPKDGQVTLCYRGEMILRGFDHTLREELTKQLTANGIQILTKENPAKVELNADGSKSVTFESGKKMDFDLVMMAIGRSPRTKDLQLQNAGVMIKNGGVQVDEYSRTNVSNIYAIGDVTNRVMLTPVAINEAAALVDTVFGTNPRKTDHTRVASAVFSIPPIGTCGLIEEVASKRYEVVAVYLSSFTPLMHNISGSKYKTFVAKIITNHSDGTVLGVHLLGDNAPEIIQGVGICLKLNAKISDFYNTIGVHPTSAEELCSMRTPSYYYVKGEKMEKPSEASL
# assayName: Inhibitory activity (100 uM) against recombinant Trypanosoma cruzi trypanothione reductase was determined in presence of Trypanothione disulfide (110 uM)
readoutName: inhibition

[[record]]
compound = "COc1cc(C(=N)NC2CCC(CC3CCC(/N=C(\\N)c4ccc(OCc5ccccc5)c(OC)c4)CC3)CC2)ccc1OCc1ccccc1 (centres undefined)"
result = "97%"

[[record]]
compound = "CN1CCN(CC/N=C(\\N)c2ccc3[nH]ccc3c2)CC1"
result = "31%"

[[record]]
compound = "N=C(NCCOCCOCCNC(=N)c1cnccn1)c1cnccn1"
result = "< 10%"

[[record]]
compound = "N=C(CCCCCCCC(=N)NCC#Cc1ccccc1)NCC#Cc1ccccc1"
result = "69%"


---

Measured Ki of individual entries
# targetOfAssay: Trypanothione reductase (Trypanosoma cruzi, UniProt P28593)
# assayName: Inhibitory constant against recombinant Trypanosoma cruzi trypanothione reductase was determined photometrically at 25 degree C in TR assay buffer (40 mM Hepes, 1 mM EDTA, pH 7.5)
readoutName: Ki (nM)

[[record]]
compound = "[H]/N=C(\\N/C(=N/[H])NCCCCCCNC(=N)NC(=N)Nc1ccc(Cl)cc1)Nc1ccc(Cl)cc1"
recordednumber = 2000

[[record]]
compound = "COc1cc(C(N)=Nc2ccc(Oc3ccc(N=C(N)c4ccc(OCc5ccccc5)c(OC)c4)cc3)cc2)ccc1OCc1ccccc1"
recordednumber = 2000

[[record]]
compound = "COc1cc(C(=N)NC2CCC(CC3CCC(/N=C(\\N)c4ccc(OCc5ccccc5)c(OC)c4)CC3)CC2)ccc1OCc1ccccc1 (stereo not given)"
recordednumber = 2000

[[record]]
compound = "COc1cc(C(=N)NCCCCCCCCNC(=N)c2ccc(OCc3ccccc3)c(OC)c2)ccc1OCc1ccccc1"
recordednumber = 5000

[[record]]
compound = "O=C(Cc1cccc2ccccc12)NCCNC(=O)C1(NC(=O)C(=O)c2ccc([N+](=O)[O-])cc2)CCNCC1"
recordednumber = 6200


---

# targetOfAssay: Trypanothione reductase (Trypanosoma cruzi, UniProt P28593)
# assayName: Competitive inhibitory constant against recombinant Trypanosoma cruzi trypanothione reductase was determined photometrically at 25 degree C in TR assay buffer (40 mM Hepes, 1 mM EDTA, pH 7.5)
readoutName: Ki (µM)

[[record]]
smilesstring = "N=C(CCCCCCCC(=N)NCC#Cc1ccccc1)NCC#Cc1ccccc1"
readoutname = "Ki"
recordednumber = 6


---

# targetOfAssay: Trypanothione reductase (Trypanosoma cruzi)
# assayName: Inhibitory activity (100 uM) against recombinant Trypanosoma cruzi trypanothione reductase was determined in presence of Trypanothione disulfide (110 uM)
Reported inhibition values are given for each entry in this list.
readoutName: inhibition (%)

[[record]]
compound = "N=C(NCCc1cccnc1)c1sccc1Br"
unittext = "%"
resultqualifier = "="
recordednumber = 15

[[record]]
compound = "N=C(NC1CCC(CC2CCC(NC(=N)c3cccs3)CC2)CC1)c1cccs1 (stereo unspecified)"
unittext = "%"
resultqualifier = "="
recordednumber = 16

[[record]]
compound = "N=C(NCCCCCCCCNC(=N)c1cccs1)c1cccs1"
unittext = "%"
resultqualifier = "<"
recordednumber = 10

[[record]]
compound = "N=C(NCCOCCOCCNC(=N)c1cccs1)c1cccs1"
unittext = "%"
resultqualifier = "<"
recordednumber = 10

[[record]]
compound = "CN1CCN(CCC/N=C(\\N)c2cccs2)CC1"
unittext = "%"
resultqualifier = "<"
recordednumber = 10

[[record]]
compound = "N=C(NCCc1cccnc1)c1cccs1"
unittext = "%"
resultqualifier = "<"
recordednumber = 10

[[record]]
compound = "N=C(Nc1ccc(Oc2ccc(NC(=N)c3cccs3)cc2)cc1)c1cccs1"
unittext = "%"
resultqualifier = "="
recordednumber = 12

[[record]]
compound = "COc1cc(C(=N)Nc2ccc(Oc3ccc(NC(=N)c4ccc(OCc5ccccc5)c(OC)c4)cc3)cc2)ccc1OCc1ccccc1"
unittext = "%"
resultqualifier = "="
recordednumber = 90

[[record]]
compound = "CN1CCN(CCC/N=C(\\N)c2sccc2Br)CC1"
unittext = "%"
resultqualifier = "<"
recordednumber = 10

[[record]]
compound = "N=C(NC1CCC(CC2CCC(NC(=N)c3cnccn3)CC2)CC1)c1cnccn1 (stereo unspecified)"
unittext = "%"
resultqualifier = "<"
recordednumber = 10

[[record]]
compound = "COc1cc(C(=N)NCCCCCCCCN=C(N)c2ccc(OCc3ccccc3)c(OC)c2)ccc1OCc1ccccc1"
unittext = "%"
resultqualifier = "="
recordednumber = 85

